Attribution: patent US20260327191A1

TEST TARGET: GSK3A (Homo sapiens)
Sequence (P49840 whole entry): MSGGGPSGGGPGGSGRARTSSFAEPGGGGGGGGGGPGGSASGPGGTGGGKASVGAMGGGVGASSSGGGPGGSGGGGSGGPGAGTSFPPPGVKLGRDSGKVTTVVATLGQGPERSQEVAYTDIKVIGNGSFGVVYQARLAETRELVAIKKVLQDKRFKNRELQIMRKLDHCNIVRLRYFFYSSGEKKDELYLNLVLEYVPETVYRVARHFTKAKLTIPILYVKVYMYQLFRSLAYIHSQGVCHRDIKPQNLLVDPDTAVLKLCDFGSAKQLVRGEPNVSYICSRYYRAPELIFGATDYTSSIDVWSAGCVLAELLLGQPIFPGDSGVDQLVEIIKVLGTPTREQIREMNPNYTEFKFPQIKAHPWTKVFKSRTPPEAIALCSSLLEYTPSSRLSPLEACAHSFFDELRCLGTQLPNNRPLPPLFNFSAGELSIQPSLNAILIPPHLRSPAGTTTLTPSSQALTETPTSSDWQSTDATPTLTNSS
PROCEDURE SUMMARY: NanoBRET cellular target engagement assay, Nanoluc-GSK3A in HEK293 cells
EXPERIMENTAL CONTEXT: NanoBRET GSK3α IC50, HEK293 cells, tracer K-8, 2 hours, 37° C
Structures can show the parent of a compound that is named as a salt.
METRIC: pIC50
Note on units: pIC50 is unitless, being -log10 of a concentration expressed in mol/L.

Memo: COc1cc(Cl)c(-n2cnc(N)c(C(=O)Nc3cncc([C@@H](N)C(F)F)c3)c2=O)c(Cl)c1 (single isomer, unassigned) , reported pIC50: 8.06

Memo: NCc1cccc(NC(=O)c2c(N)ncn(-c3c(Cl)cccc3Cl)c2=O)c1OC(F)F [Example 170, trifluoroacetate] , reported pIC50: 7.79

Memo: COc1cc(Cl)c(-n2cnc(N)c(C(=O)Nc3cncc([C@@H]4COCCCN4)c3)c2=O)c(Cl)c1 (single isomer, unassigned) , reported pIC50: 8.44

Memo: Cc1cc([C@@H](C)F)cc(C)c1-n1cnc(N)c(C(=O)Nc2cncc([C@H]3CCCCN3)c2)c1=O (single isomer, unassigned) [Example 184] , reported pIC50: 8.68

Memo: C[C@@H](N)c1cncc(NC(=O)c2c(N)ncn(-c3c(Cl)cc(Cl)cc3Cl)c2=O)c1 (single isomer, unassigned) , reported pIC50: 8.13

Memo: COc1cc(Cl)c(-n2cnc(N)c(C(=O)Nc3cncc([C@@H]4CCCN4)c3)c2=O)c(Cl)c1 , reported pIC50: 8.24
